target: hmGlu1 (Homo sapiens, UniProt Q13255); test: Calcium mobilization mGlu1 assay; type: cell-based; details: calcium mobilization, n=3
Sequence (Q13255 19-1194): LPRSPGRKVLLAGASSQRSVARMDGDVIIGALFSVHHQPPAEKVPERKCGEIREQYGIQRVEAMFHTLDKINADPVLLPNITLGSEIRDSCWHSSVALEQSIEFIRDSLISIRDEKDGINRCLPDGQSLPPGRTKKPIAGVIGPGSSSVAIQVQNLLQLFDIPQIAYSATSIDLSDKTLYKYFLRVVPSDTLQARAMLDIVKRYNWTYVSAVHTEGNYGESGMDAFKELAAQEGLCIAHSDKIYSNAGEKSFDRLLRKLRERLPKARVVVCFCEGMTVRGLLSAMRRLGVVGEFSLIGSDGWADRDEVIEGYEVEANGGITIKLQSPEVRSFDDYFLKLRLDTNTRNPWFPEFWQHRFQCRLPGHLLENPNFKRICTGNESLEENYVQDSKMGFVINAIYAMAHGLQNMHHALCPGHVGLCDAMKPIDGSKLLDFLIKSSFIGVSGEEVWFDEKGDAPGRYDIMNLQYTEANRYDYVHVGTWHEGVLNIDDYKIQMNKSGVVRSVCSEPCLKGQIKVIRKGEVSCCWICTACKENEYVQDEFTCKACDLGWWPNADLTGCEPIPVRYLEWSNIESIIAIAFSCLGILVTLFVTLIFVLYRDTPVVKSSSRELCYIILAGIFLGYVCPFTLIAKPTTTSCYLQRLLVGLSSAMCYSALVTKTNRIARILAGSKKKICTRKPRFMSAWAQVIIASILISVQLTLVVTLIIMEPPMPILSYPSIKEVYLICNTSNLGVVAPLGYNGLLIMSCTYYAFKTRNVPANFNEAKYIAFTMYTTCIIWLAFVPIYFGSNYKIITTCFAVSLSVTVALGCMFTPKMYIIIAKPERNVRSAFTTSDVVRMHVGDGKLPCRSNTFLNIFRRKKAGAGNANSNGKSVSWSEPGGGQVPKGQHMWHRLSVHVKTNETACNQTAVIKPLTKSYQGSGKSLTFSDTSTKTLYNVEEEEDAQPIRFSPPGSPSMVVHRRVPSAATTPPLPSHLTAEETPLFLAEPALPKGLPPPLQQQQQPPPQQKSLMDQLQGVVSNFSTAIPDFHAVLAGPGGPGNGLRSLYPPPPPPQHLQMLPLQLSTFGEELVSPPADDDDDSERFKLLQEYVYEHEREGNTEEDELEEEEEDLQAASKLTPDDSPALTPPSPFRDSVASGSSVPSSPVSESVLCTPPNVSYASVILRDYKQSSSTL
attributeMeasured: mGlu1 pEC50 (±SEM)

Cc1ccoc1C(=O)Nc1ccc(N2C(=O)c3ccc(F)cc3C2=O)cc1F [13d] : 7.71
Cc1cn[nH]c1C(=O)Nc1ccc(N2C(=O)c3ccccc3C2=O)c(Cl)c1 [10k] : 5.91
Cc1scnc1C(=O)Nc1ccc(N2C(=O)c3ccc(Cl)cc3C2=O)c(Cl)c1 [11j] : 7.30
Cc1scnc1C(=O)Nc1ccc(N2C(=O)c3cccc(Cl)c3C2=O)c(Cl)c1 [11k] : 5.86

[A] Cc1ccoc1C(=O)Nc1ccc(N2C(=O)c3ccc(Cl)cc3C2=O)cc1F [13c]
[B] Cc1ccsc1C(=O)Nc1ccc(N2C(=O)c3ccccc3C2=O)c(Cl)c1 [10d]
**Query** Would you kindly point out which of A and B has the smaller mGlu1 pEC50 (±SEM) figure? Answer format: the label of the selected item.
**Result** B

---

target: hmGlu1 (Homo sapiens); assay: Calcium mobilization mGlu1 assay
pEC50: −log10 of the molar value.
attributeMeasured: pEC50

**Query** // pEC50 lookup, key: Cc1ccsc1C(=O)Nc1ccc(N2C(=O)c3ccccc3C2=O)c(Cl)c1 [10d]
**Result** 5.74 to 5.82

---

molecular target: UniProt Q13255; experiment: Calcium mobilization mGlu1 assay; type: cell-based; conditions: calcium mobilization, n=3
attributeMeasured: mGlu1 pEC50 (±SEM)

Cc1cn[nH]c1C(=O)Nc1ccc(N2C(=O)c3cccc(C)c3C2=O)c(Cl)c1 [11w] : 5.36
Cn1ccnc1C(=O)Nc1ccc(N2C(=O)c3ccc(Cl)cc3C2=O)c(Cl)c1 [11q] : 6.58
Cc1cccc2c1C(=O)N(c1ccc(NC(=O)c3ncsc3C)cc1Cl)C2=O [11i] : 6.64
Cc1ccc2c(c1)C(=O)N(c1ccc(NC(=O)c3[nH]ncc3C)cc1Cl)C2=O [11v] : 6.25
Cc1ccc2c(c1)C(=O)N(c1ccc(NC(=O)c3nccn3C)cc1Cl)C2=O [11o] : 6.60
Cc1ocnc1C(=O)Nc1ccc(N2C(=O)c3ccc(Cl)cc3C2=O)c(Cl)c1 [11c] : 7.26
Cc1ccc2c(c1)C(=O)N(c1ccc(NC(=O)c3ncoc3C)cc1Cl)C2=O [11a] : 7.38
Cc1ccoc1C(=O)Nc1ccc(N2C(=O)c3cccc(F)c3C2=O)cc1F [13e] : 7.65
Cc1ocnc1C(=O)Nc1ccc(N2C(=O)c3ccccc3C2=O)c(Cl)c1 [10g] : 5.83

Source listed as paper PMC4794757.
